Give activity at 1 µM for every item shown.
- Test system: iCell endothelial cells (human iPSC-derived ECs)
- MEASUREMENT_DESCRIPTION: Tube formation (tubulogenesis) assay in iCell endothelial cells, 18 h
- Format: cell-based
- CONDITION_DETAILS: Homo sapiens, Endothelial cell, iPSC-EC tube formation, 18 hr, 1.00 µM, 0.00 µM control = 100.00, read-out: endo.mtl.18hr
Counter-ions that a name gives are not always drawn.
Kindly provide the numeric value in % only, without the unit symbol.

**Query** Return the recorded activity at 1 µM value; entry: COc1ccc(-c2ccc(Cl)cc2)cc1 [4'-OMe PCB3]
**Result** 96

**Query** In one line, give reported activity at 1 µM of the entry O=S(=O)(O)Oc1cc(Cl)ccc1-c1ccccc1 [2-yl PCB 3 sulfate] .
**Result** 91.4

**Query** Report measured activity at 1 µM; entry is Clc1ccc(-c2ccccc2)cc1 [PCB3]
**Result** 119

**Query** Given O=S(=O)(O)Oc1cc(-c2ccccc2)ccc1Cl [3-yl PCB 3 sulfate] , respond with its activity at 1 µM.
**Result** 92.1

**Query** Give me measured activity at 1 µM, please, for this compound: Oc1ccc(-c2ccc(Cl)cc2)cc1 [4'-OH PCB3]
**Result** 90.3

**Query** Please give the documented activity at 1 µM of O=C1C=CC(=O)C(c2ccc(Cl)cc2)=C1 [4-Cl-BQ, 2-(4-Chlorophenyl)benzo-2,5-quinone]
**Result** 77.5

* * *

- System: iCell cardiomyocytes (human iPSC-derived cardiomyocytes)
- MEASUREMENT_DESCRIPTION: Intracellular Ca2+ flux / beating parameters in iCell cardiomyocytes (FLIPR tetra), 90 min or 24 h
- Format: cell-based
- CONDITION_DETAILS: Homo sapiens, Cardiomyocyte, 24 h, 0.01 µM; 24hrs; 0.00 µM = 100.00; read-out: cm.amp.avg.24hrs
Counter-ions that a name gives are not always drawn.
METRIC: activity at 0.01 µM (%)
// return numeric value only (unit: %, not printed)

**Query** Tell me measured activity at 0.01 µM for Oc1cc(Cl)c(-c2cc(Cl)ccc2Cl)cc1Cl [4-OH PCB52] please.
**Result** 125

**Query** Please look at this compound and report its activity at 0.01 µM: Clc1cc(Cl)c(-c2cc(Cl)c(Cl)cc2Cl)cc1Cl [PCB153]
**Result** 50.2

**Query** Retrieve activity at 0.01 µM measured for O=S(=O)(O)Oc1cc(Cl)c(-c2cc(Cl)ccc2Cl)cc1Cl [4-yl PCB 52 sulfate] and print it.
**Result** 128

**Query** Tell me measured activity at 0.01 µM for Clc1ccc(-c2cc(Cl)c(Cl)c(Cl)c2)cc1Cl [PCB126] please.
**Result** 73.3

* * *

- Test system: iPSC-CMs, iPSC-ECs and HUVECs phenotypes
- MEASUREMENT_DESCRIPTION: ToxPi 2.0 integration of POD values and physicochemical descriptors
- Set-up: species or system human
- CONDITION_DETAILS: ToxPi-scaled (0-1) score; iPSC cardiomyocytes, 24 h
Structures can show the parent of a compound that is named as a salt.
METRIC: cm.decay.rise.24hrs

**Query** Supply reported cm.decay.rise.24hrs belonging to this compound: `COc1ccc(-c2ccc(Cl)cc2)cc1`
**Result** 0.569

**Query** Give a short answer stating reported cm.decay.rise.24hrs for O=S(=O)(O)Oc1cccc(-c2ccc(Cl)cc2)c1 [3'-PCB 3 sulfate] .
**Result** 0

**Query** Provide cm.decay.rise.24hrs value for the following compound: `Oc1cc(Cl)c(-c2cc(Cl)ccc2Cl)cc1Cl`
**Result** 0.2583

**Query** Specify cm.decay.rise.24hrs for `Oc1cc(Cl)cc(-c2cccc(Cl)c2)c1` and stop.
**Result** 0.2666

**Query** Fill in reported cm.decay.rise.24hrs for this entry: `Clc1ccc(-c2ccccc2)cc1`
**Result** 0.3179

**Query** Supply measured cm.decay.rise.24hrs of `Clc1cccc(-c2cccc(Cl)c2)c1` in your reply.
**Result** 0.254

**Query** Identify the reported cm.decay.rise.24hrs for the following entry. `O=C1C=CC(=O)C(c2ccc(Cl)cc2)=C1`
**Result** 0.8647
